Test system: DLD-1 colon
ASSAY OVERVIEW: NCI tumour cell line growth inhibition, 48 h
Listed here are molecules together with their documented TGI.
OBSERVABLE: TGI (µM)

1) COc1cccc2c1C(=O)c1c(O)c3c(c(O)c1C2=O)C[C@@](O)(C(=O)CO)CC3OC1CC(NCCOCC(OC(C)=O)OC(C)=O)C(O)C(C)O1 (stereo partly specified) ... 0.38
2) CCN(CC)C(=S)SS(C)(=O)=O ... 33.3
3) Cc1ccc(S(=O)(=O)C2CC2(Cl)Cl)cc1 (stereo unspecified) ... 61.1

----------
Measured TGI of individual entries
Tested on: KM12 colon
ASSAY OVERVIEW: NCI tumour cell line growth inhibition, 48 h
OBSERVABLE: TGI

1. COc1cc(C(=O)n2nc(N)c3c(C)cc(C)nc32)cc(OC)c1OC ... > 100 µM
2. COc1ccc(/C=C/c2ccnc3ccccc23)cc1OC ... 30.8 µM
3. CCN(CC)c1c(C)nnn1C1OC(COC(C)=O)C(OC(C)=O)C(OC(C)=O)C1OC(C)=O (stereo unspecified) ... > 100 µM
4. CCOC(=O)c1nc2cc(Cl)ccc2[nH]c1=O ... > 100 µM
5. O=c1[nH]cnc2c1cnn2Cc1cnnn1COCCO ... > 100 µM
6. CC12CCc3ccccc3C1=NNC(=O)C2 (stereo unspecified) ... > 100 µM

----------
Tested on: HT29 colon
ASSAY OVERVIEW: NCI tumour cell line growth inhibition, 48 h; in the data active = GI50 below about 0.43 µM; inactive = the rest
Classes used: class 1 (active), class 0 (inactive)

1) O=C(NCCNCCO)c1ccc(Nc2nc3ccccc3c3occc23)cc1 ... class 0
2) Cc1ccc(-c2nc3sc(C)cn3c2/C=C2\C(=O)Nc3ccc(Cl)cc32)cc1 ... class 0
3) CC/C=C\C[C@H]1C/C=C2/C(=O)C(Cl)=C[C@@H]2C/C=C\CCCC(=O)O1 ... class 1
4) CSc1nc2c(c(=O)n1C)C(c1ccccc1)C1=C(N2)/C(=C/c2ccccc2)CCC1 (configuration not stated) ... class 0
5) FC(F)(F)c1cccc(-c2[nH]ncc2-c2nnnn2-c2ccccc2)c1 ... class 0
6) Cc1cc(N(CCNc2ccnc3cc(Cl)ccc23)Cc2ccc3c(c2)OCO3)nc(N2CCCC2)n1 ... class 0
7) COc1ccc2c3/c(=C\c4ccc(N(C)C)cc4)c4ccccc4n3[n+](C)c2c1 ... class 1

----------
Recorded TGI for the following compounds
System: MALME-3M melanoma
ASSAY OVERVIEW: NCI tumour cell line growth inhibition, 48 h
OBSERVABLE: TGI

1) CN(C)N=Nc1ccc(S(N)(=O)=O)cc1 ... > 100 µM
2) O=C1C(Cl)=C(NCCCN(CCCNC2=C(Cl)C(=O)c3ccccc3C2=O)C2=C(Cl)C(=O)c3ccccc3C2=O)C(=O)c2ccccc21 ... 3.29 µM
3) NC(=O)c1ncn(C2OC(CO)C(O)C2O)c1O (configuration not stated) ... > 100 µM
4) N#CC1=C(N)OC2=C(CCOc3c2ccc2ccccc32)C1c1ccc(Br)cc1 (configuration not stated) ... 57.7 µM
5) COc1ccc(-c2oc3cc(O)c(OC)c(O)c3c(=O)c2O)cc1 ... 88.2 µM
6) CSC(C1c2ccccc2N(C)c2[nH]c(=O)n(C)c(=O)c21)S(=O)(=O)c1ccc(C)cc1 (configuration not stated) ... > 100 µM
7) COc1ccc2[nH]c3c(c2c1)CC(=O)N1CCC[C@H](C1)CC31OCCCO1 ... > 100 µM
8) CC1=C2C=CC(=O)C[C@@]2(C)CCC1 ... > 100 µM
9) O=C1c2cccnc2-c2nccc3c2c1nc1ccccc13 ... 0.603 µM
10) CN1CCN(c2nc(N)c(Br)c(Cl)n2)CC1 ... > 100 µM
11) N#COc1ccc(Oc2ccc(OC#N)cc2)cc1 ... > 100 µM
12) COc1cc(S(=O)(=O)Nc2ccc(-c3csc(N4C(=O)CSC4c4ccccc4O)n3)cc2)ccc1Cl (configuration not stated) ... > 100 µM
13) CCOC(=O)/C=C1/SC(=Nc2ccc(C#N)cc2)N(Cc2ccco2)C1=O ... 9.65 µM
14) CC1(C)C(=O)/C=C\C(=O)C(C)(C)C(=O)/C=C\C(=O)C(C)(C)C2=CC=C(O2)C(C)(C)C(=O)/C=C\C1=O ... 4.11 µM
15) O=C(NC1=C(Cl)C(=O)c2ccccc2C1=O)C(=O)C(C(=O)c1ccc2ccccc2c1)C1OC(=O)c2ccccc21 (configuration not stated) ... 4.16 µM
16) CC(=O)CC(=O)Nc1ccccc1C(F)(F)F ... > 100 µM
17) CN1CCN(c2ccc(NC3=CC(=O)c4ncncc4C3=O)cc2)CC1 ... 0.713 µM
18) O=C1/C(=C/c2ccc(C(F)(F)F)cc2)COc2ccc(O)c(O)c21 ... 3.3 µM
19) N#Cc1ccc(C2SCc3nc4ccccc4n32)cc1 (configuration not stated) ... > 100 µM
20) COc1ccc(/C=C/c2ccnc3ccccc23)cc1OC ... 30.7 µM
21) CC1=C(C(=O)Nc2ccc(Cl)c(Cl)c2)C(c2cccc(Cl)c2)NC(=S)N1 (configuration not stated) ... 29.8 µM
22) COC(=O)C(CCC1(C)OCCO1)=[N+]=[N-] ... > 100 µM

----------
System: MOLT-4 leukemia
ASSAY OVERVIEW: NCI tumour cell line growth inhibition, 48 h
OBSERVABLE: TGI

1) CC1=C(C(=O)Nc2ccc(Cl)c(Cl)c2)C(c2cccc(Cl)c2)NC(=S)N1 (stereo unspecified) ... > 50 µM
2) Cc1cc(O)c2c(c1)C(C1c3cccc(O)c3C(=O)c3c(O)cc(C)cc31)c1cccc(O)c1C2=O (stereo unspecified) ... 12.5 µM
3) CC1=C2C=CC(=O)C[C@@]2(C)CCC1 ... > 100 µM
4) N#CC1=C(N)OC2=C(CCOc3c2ccc2ccccc32)C1c1ccc(Br)cc1 (stereo unspecified) ... 49 µM
5) COc1ccc2c(c1)/c(=C/C#N)c1c3ccccc3[n+](C)n21 ... > 57.2 µM
6) CCNC(=S)NNC(=O)c1ccccc1Nc1ccccc1C(=O)NNC(=S)NCC ... > 100 µM

----------
Recorded TGI by entry
System: UO-31 renal
ASSAY OVERVIEW: NCI tumour cell line growth inhibition, 48 h
Where a SMILES comes first, the peptide text is derived from it. [ ]: non-standard residue; d: D form. The star is where a group is joined. ξ: configuration not given here. NMeF = CN[CH](Cc1ccccc1)C(=O)O; ξNMe2Val = CC(C)C(C(=O)*)N(C)C; NMeV = CN[CH](C(=O)O)C(C)C; OtBu = CC(C)(C)O*
OBSERVABLE: TGI

1) O=C(N/C(=C\c1ccc(/C=C(\NC(=O)c2ccccc2)c2nc3c(O)nc(S)nc3[nH]2)cc1)c1nc2c(O)nc(S)nc2[nH]1)c1ccccc1 ... > 100 µM
2) CCOC(=O)N1CCC2(CC1)C[C@@](C(C)=O)(c1ccccc1)C(C)O2 (stereo partly drawn) ... > 100 µM
3) COc1ccc(Nc2nc(N)c(C(=O)c3ccc(Cl)cc3)s2)cc1 ... 16 µM
4) O=C(O)c1nn(-c2ccccc2)nc1-c1nn(-c2ccccc2)nc1C(=O)O ... > 100 µM
5) Cc1cc(C)n(-c2nc(C)c(CCO)c(=O)[nH]2)n1 ... > 100 µM
6) COC(=O)c1cc(-c2ccc(S(C)(=O)=O)cc2)[nH]c1N/N=C/c1c(Cl)cccc1Cl ... 37.5 µM
7) CC[C@]12C=CCN3CC[C@@]4(c5cc(Br)c(OC)cc5N(C)[C@H]4[C@@](O)(C(=O)NC(Cc4c[nH]c5ccccc45)C(=O)OC)[C@@H]1O)[C@@H]32 (stereo partly drawn) ... > 100 µM
8) O=C(Oc1c(Cl)cc(Cl)cc1Cl)c1ccccc1Nc1ccnc(C(F)(F)F)c1 ... > 100 µM
9) COc1ccc(-c2oc3cc(O)c(OC)c(O)c3c(=O)c2O)cc1 ... > 61.3 µM
10) COC(=O)c1c2c(cc3c1CC1(Cc4ccccc4C1)C3)CCC2 ... > 100 µM
11) O=C1c2cccnc2-c2nccc3c2c1nc1ccccc13 ... 0.634 µM
12) Cc1ccc(Nc2nc(-c3ccc(-c4ccc([N+](=O)[O-])cc4)o3)cs2)cc1 ... > 100 µM
13) CC/C=C\C[C@H]1C/C=C2/C(=O)C(Cl)=C[C@@H]2C/C=C\CCCC(=O)O1 ... 0.703 µM
14) CCN(C(=O)N[C@H](C(=O)N[C@@H](CSC)C(=O)N[C@@H](C)C(=O)OC)C(C)C)c1ccccc1 ... 31.3 µM
15) Cc1c(-c2ccccn2)ccc2ccccc12 ... 82.9 µM
16) COc1ccc2c(c1)/C(=N/OC(C)=O)c1c-2c(OC)nc2ccccc12 ... > 100 µM
17) CC(C)C(C(=O)N(C)C(Cc1ccccc1)C(=O)N(C)C(C(=O)N(C)C(C(=O)N1CCCC1C(=O)OC(C)(C)C)C(C)C)C(C)C)N(C)C (stereo not drawn) (ξNMe2Val-[NMeF][NMeV][NMeV]P-OtBu; configuration not given here) ... > 100 µM
18) Clc1ccc(-c2nc(NCc3ccco3)c3ccccc3n2)c(Cl)c1 ... > 100 µM
